Data origin, for the record: the supplement of paper PMC10065799

# system-tested: Hck (UniProt P08631)
# Sequence (P08631 whole entry, looked up): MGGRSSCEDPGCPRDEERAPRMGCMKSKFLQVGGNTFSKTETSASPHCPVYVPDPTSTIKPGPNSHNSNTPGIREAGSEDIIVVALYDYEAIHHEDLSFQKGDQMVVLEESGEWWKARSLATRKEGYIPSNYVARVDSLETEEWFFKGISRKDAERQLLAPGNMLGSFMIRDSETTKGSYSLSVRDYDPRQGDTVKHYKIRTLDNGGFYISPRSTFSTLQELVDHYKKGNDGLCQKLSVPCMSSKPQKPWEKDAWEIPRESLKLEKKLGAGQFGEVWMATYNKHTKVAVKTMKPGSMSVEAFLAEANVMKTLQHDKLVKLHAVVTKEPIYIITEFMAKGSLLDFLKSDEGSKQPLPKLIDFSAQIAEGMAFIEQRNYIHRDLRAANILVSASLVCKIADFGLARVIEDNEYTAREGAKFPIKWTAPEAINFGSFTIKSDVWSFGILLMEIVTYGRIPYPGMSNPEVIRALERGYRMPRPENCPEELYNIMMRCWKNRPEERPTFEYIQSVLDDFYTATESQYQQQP
# procedure-text: phosphorylation enrichment, bacterial display (enrichment ratio); higher = better substrate or ligand; peptides without Tyr show the background;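 note: 11-residue human phosphosite peptides and single-mutation variants displayed on the E. coli surface, counted by deep sequencing, each peptide's frequency after selection divided by its frequency in the unselected input library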;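 note: frequency after pTyr selection over input frequency; kinase dosed for 20-30% of maximal phosphorylation in three min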
quantity-measured: phosphorylation enrichment
Give only the figure.

What measured phosphorylation enrichment goes with ESMLRYEVYGG [STOX1_Y607] ?
0.712

What measured phosphorylation enrichment goes with KDGIGYISAAE [CALM2_Y100_N98I] ?
0.454

What measured phosphorylation enrichment goes with RLNCIYFKDQT [RS1_Y165_W163C_YF] ?
0.77

What measured phosphorylation enrichment goes with DENRFYTRAAS [RPS19_Y54_W52R] ?
0.466

What measured phosphorylation enrichment goes with DLDFTYIFPNI [PTEN_Y27_L25F_YF] ?
1.16

What measured phosphorylation enrichment goes with LLREWYLQDPY [SIX3_Y225] ?
0.85

What measured phosphorylation enrichment goes with MAPQMYESHLP [NCAPD2_Y6_F8S] ?
0.568

What measured phosphorylation enrichment goes with RGFRQYAFDGK [HLA-A_Y140_D140Y_YF] ?
0.711

What measured phosphorylation enrichment goes with FISLIYTNFEV [GSTP1_Y109_A114V_YF] ?
2.7

What measured phosphorylation enrichment goes with ISGGGYRACPA [FGB_Y71_R74C] ?
0.432

What measured phosphorylation enrichment goes with CKLYQYYLDHL [ATRX_Y1849] ?
0.698

What measured phosphorylation enrichment goes with FAKSVYWDNTL [NUP107_Y296_E298D_YF] ?
0.578

What measured phosphorylation enrichment goes with NPQKPYFIRLF [WAS_Y83_S82P_YF] ?
0.479

What measured phosphorylation enrichment goes with RRKRAYVEIEF [MAK16_Y282_Q277R_YF] ?
0.505

What measured phosphorylation enrichment goes with KLQKYYRQNPD [EHHADH_Y683] ?
0.448

What measured phosphorylation enrichment goes with FFSSEYHFVGG [CTSC_Y345_YF] ?
2.44

----------
# system-tested: Fyn (UniProt P06241)
# Sequence (P06241 whole entry, looked up): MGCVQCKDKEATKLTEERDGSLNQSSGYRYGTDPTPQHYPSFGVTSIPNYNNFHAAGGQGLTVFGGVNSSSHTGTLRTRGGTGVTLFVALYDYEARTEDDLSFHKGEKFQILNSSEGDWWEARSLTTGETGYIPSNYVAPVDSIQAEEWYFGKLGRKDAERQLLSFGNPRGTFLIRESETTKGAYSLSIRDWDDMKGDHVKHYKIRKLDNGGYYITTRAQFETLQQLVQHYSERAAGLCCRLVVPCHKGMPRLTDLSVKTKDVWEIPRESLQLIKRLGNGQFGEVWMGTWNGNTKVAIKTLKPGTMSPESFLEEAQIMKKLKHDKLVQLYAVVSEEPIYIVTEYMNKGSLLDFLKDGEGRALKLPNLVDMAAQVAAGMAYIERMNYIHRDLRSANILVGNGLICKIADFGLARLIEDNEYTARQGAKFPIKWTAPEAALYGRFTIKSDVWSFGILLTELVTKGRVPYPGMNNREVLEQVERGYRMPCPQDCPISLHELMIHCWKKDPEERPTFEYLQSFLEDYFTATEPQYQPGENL
# procedure-text: phosphorylation enrichment, bacterial display (enrichment ratio); higher = better substrate or ligand; peptides without Tyr show the background
Binary call on phosphorylation enrichment: Condition met from 0.5 upward, Condition not met beneath that.

For this sequence, is measured phosphorylation enrichment 0.5 or higher? LVMFIYAIFWM [SCN1A_Y1684_G1688W]
Condition met

For this sequence, is measured phosphorylation enrichment 0.5 or higher? PEIIAYQPYGK [PRKCG_Y529]
Condition met

For this sequence, is measured phosphorylation enrichment 0.5 or higher? DELDKYSEVLK [TPM1_Y60_A63V]
Condition met

For this sequence, is measured phosphorylation enrichment 0.5 or higher? VMLENYSNLLS [ZFP69_Y109_V113L]
Condition not met

For this sequence, is measured phosphorylation enrichment 0.5 or higher? MARDISRASYY [ALK_Y1278_Y1278S]
Condition not met

For this sequence, is measured phosphorylation enrichment 0.5 or higher? FRKNIYNVKST [SYNE2_Y575_YF]
Condition not met

For this sequence, is measured phosphorylation enrichment 0.5 or higher? GNLQENLTRHV [TGFBR2_Y336_Y336N]
Condition not met

For this sequence, is measured phosphorylation enrichment 0.5 or higher? EFTPLYPMLFG [SCLY_Y280]
Condition met

For this sequence, is measured phosphorylation enrichment 0.5 or higher? IVRSLYEDQED [VHL_Y185_L188Q]
Condition not met

For this sequence, is measured phosphorylation enrichment 0.5 or higher? YPLELYERVRM [PRKCG_Y312]
Condition met

For this sequence, is measured phosphorylation enrichment 0.5 or higher? CTTIHYNFMCT [TP53_Y234_N239T_YF]
Condition not met

For this sequence, is measured phosphorylation enrichment 0.5 or higher? MFNPYYGLFEY [NEDD4L_Y680]
Condition met

For this sequence, is measured phosphorylation enrichment 0.5 or higher? MSPPGYKLVNG [GJA1_Y286_T290N]
Condition not met

For this sequence, is measured phosphorylation enrichment 0.5 or higher? IEENGYNTYAS [FGF10_Y161]
Condition met

For this sequence, is measured phosphorylation enrichment 0.5 or higher? IVEELYAIPPD [PEAK1_Y797_S792I]
Condition met

For this sequence, is measured phosphorylation enrichment 0.5 or higher? FADTAYNFRHG [PAH_Y166_I164T_YF]
Condition not met

For this sequence, is measured phosphorylation enrichment 0.5 or higher? KDHPDYKFPPR [SOX10_Y171_Q174P_YF]
Condition not met

For this sequence, is measured phosphorylation enrichment 0.5 or higher? HIAKVYRRDNP [HARS1_Y156]
Condition met

For this sequence, is measured phosphorylation enrichment 0.5 or higher? PFSNSYENSLI [EPOR_Y489_P488S_YF]
Condition met

For this sequence, is measured phosphorylation enrichment 0.5 or higher? VEKEKYVSFIS [JMJD1C_Y596_M591V_YF]
Condition not met

For this sequence, is measured phosphorylation enrichment 0.5 or higher? HFPFQYHRQLF [F12_Y53_YF]
Condition not met

For this sequence, is measured phosphorylation enrichment 0.5 or higher? KLQKKYGPIYS [CYP17A1_Y60]
Condition met

For this sequence, is measured phosphorylation enrichment 0.5 or higher? KDHPDYEYQPR [SOX9_Y172_K173E]
Condition met

For this sequence, is measured phosphorylation enrichment 0.5 or higher? KSIQLYDTPYE [SHB_Y297_G293S]
Condition met

For this sequence, is measured phosphorylation enrichment 0.5 or higher? ILGRYYETSSI [PAX2_Y73_G76S]
Condition met

For this sequence, is measured phosphorylation enrichment 0.5 or higher? PSELFYSKIGP [SMG1_Y2254_YF]
Condition met

For this sequence, is measured phosphorylation enrichment 0.5 or higher? FMRGMYFRMTD [PLA2G6_Y541_K545T_YF]
Condition not met

For this sequence, is measured phosphorylation enrichment 0.5 or higher? MSSHHYDYKKY [ZNF445_Y428]
Condition not met

For this sequence, is measured phosphorylation enrichment 0.5 or higher? LNEAVYTKMMT [G6PD_Y401_P396L]
Condition met

For this sequence, is measured phosphorylation enrichment 0.5 or higher? CTTIHQNYMCN [TP53_Y234_Y234Q]
Condition not met

For this sequence, is measured phosphorylation enrichment 0.5 or higher? TEYIQYVRRKN [MAX_Y73_M74V]
Condition met

For this sequence, is measured phosphorylation enrichment 0.5 or higher? KLKRSYPSPDI [USP8_Y717_S718P]
Condition not met

For this sequence, is measured phosphorylation enrichment 0.5 or higher? EGTGHYLCNAC [GATA5_Y208_D203E]
Condition not met

For this sequence, is measured phosphorylation enrichment 0.5 or higher? QEIATCRRLLE [KRT14_Y415_Y415C]
Condition not met

For this sequence, is measured phosphorylation enrichment 0.5 or higher? EQWRAYLEGTC [HLA-C_Y183_L180W]
Condition met

For this sequence, is measured phosphorylation enrichment 0.5 or higher? KLPYLYDDPFS [GPX2_Y127_P126L]
Condition met

For this sequence, is measured phosphorylation enrichment 0.5 or higher? SEPDLYCDPRG [PKP1_Y160]
Condition met

For this sequence, is measured phosphorylation enrichment 0.5 or higher? KKARAYRPGIE [FLNA_Y287_G288R]
Condition not met

For this sequence, is measured phosphorylation enrichment 0.5 or higher? NGPDVYVLPLT [AATK_Y93]
Condition met

For this sequence, is measured phosphorylation enrichment 0.5 or higher? GESKDYALHVG [SVIL_Y185]
Condition not met

For this sequence, is measured phosphorylation enrichment 0.5 or higher? SVTCPYSPALN [TP53_Y126_T125P]
Condition not met

For this sequence, is measured phosphorylation enrichment 0.5 or higher? TVETKYDNISR [SETDB2_Y477]
Condition met

For this sequence, is measured phosphorylation enrichment 0.5 or higher? LERYIYNREEF [HLA-DPB1_Y59]
Condition met

For this sequence, is measured phosphorylation enrichment 0.5 or higher? TEAEPYFRSLR [NPHS1_Y1138_YF]
Condition met

For this sequence, is measured phosphorylation enrichment 0.5 or higher? QMVRMYASSYM [AVPR2_Y124_G122R]
Condition met
